Please respond with reported melting point for every item in the list.

Given the compound C=CC/N=C(\NC)NC(=N)N.Cl , what is its reported melting point?
156 to 157 °C

Query (compound): CCCCCCN(CCCCCC)/C(=N\CCc1ccccc1)NC(=N)N.Cl ; field requested: melting point
138 to 140 °C

Suppose we examine the compound CN(CCc1ccccc1)/C(=N\CCc1ccccc1)NC(=N)N.Cl ; what melting point value has been reported?
144 to 145 °C

Given the entry CCCCN/C(=N\CCc1ccc(Cl)cc1)NC(=N)N.Cl , report its measured melting point.
123 to 124 °C

Item Cl.N=C(N)N/C(=N/Cc1ccc2c(c1)OCO2)NCCc1ccccc1 has what recorded melting point?
168 to 169 °C

Given Cl.N=C(N)N/C(=N/Cc1cccnc1)NC1CCCCC1 , state its recorded melting point.
265 to 266 °C

Recorded melting point for Cl.N=C(N)N/C(=N/Cc1ccccc1)NCCc1ccccc1 , please?
165 to 166 °C

What does the data say about its melting point? Entry: CCCCN/C(=N\C(C)CC)NC(=N)N.Cl (stereo not drawn)
193 to 194 °C

Record request: melting point value, item CCC/N=C(\NC)NC(=N)N.Cl
170 to 171 °C

I would be grateful if you could share the reported melting point for CCCCCC/N=C(/NC(=N)N)NC(C)CC.Cl (stereo not drawn) .
175 to 176 °C

// query melting point value for entry Cl.N=C(N)N/C(=N/CCc1cccs1)NCCc1ccccc1
183 to 185 °C

I would be grateful if you could share the reported melting point for Cl.N=C(N)N/C(=N/c1ccc(Cl)cc1)NCCc1ccccc1 .
115 to 116 °C

If you can, please state the reported melting point value of Cl.N=C(N)N/C(=N/Cc1ccco1)NCc1ccccc1 .
116 to 117 °C

Need melting point of CN/C(=N\CCc1ccccc1)NC(=N)N.Cl , thanks.
126 to 127 °C

Fill blank: measured melting point of the compound CCCCN/C(=N\Cc1ccccc1Cl)NC(=N)N.Cl is ____.
147 to 148 °C

Quick one: melting point of Cl.N=C(N)N/C(=N/c1ccccc1)NCCc1ccccc1 ?
232 to 233 °C

Fill blank: measured melting point of the compound Cl.N=C(N)N/C(=N/C1CCCC1)NCc1ccccc1 is ____.
166 to 167 °C

Query: melting point; subject: C/N=C(/NC(=N)N)N(C)Cc1ccccc1.Cl
120 to 122 °C

melting point for CCCC/N=C(\NCCCC)NC(=N)N.Cl [Example 9, N4,N5-dibutyl biguanide hydrochloride] ?
112 to 114 °C

Fill blank: measured melting point of the compound Cl.N=C(N)N/C(=N/CCc1ccccc1)NC1CCCCC1 is ____.
183 to 184 °C

// query melting point value for entry CCCCN(Cc1ccccc1)/C(=N\CCc1ccccc1)NC(=N)N.Cl
184 to 185 °C
